biological target: Acetylcholinesterase (Homo sapiens) (UniProt P22303); assay: Acetylcholinesterase (AChE) small molecule antagonists: colormetric cell-based qHTS assay (AID 1347395); settings: SH-SY5Y cells AChE activity, colorimetric (Ellman); series mostly up to 115 µM; further: nearly all actives have a fitted effect of over 30% in size
Sequence (P22303 whole entry, looked up): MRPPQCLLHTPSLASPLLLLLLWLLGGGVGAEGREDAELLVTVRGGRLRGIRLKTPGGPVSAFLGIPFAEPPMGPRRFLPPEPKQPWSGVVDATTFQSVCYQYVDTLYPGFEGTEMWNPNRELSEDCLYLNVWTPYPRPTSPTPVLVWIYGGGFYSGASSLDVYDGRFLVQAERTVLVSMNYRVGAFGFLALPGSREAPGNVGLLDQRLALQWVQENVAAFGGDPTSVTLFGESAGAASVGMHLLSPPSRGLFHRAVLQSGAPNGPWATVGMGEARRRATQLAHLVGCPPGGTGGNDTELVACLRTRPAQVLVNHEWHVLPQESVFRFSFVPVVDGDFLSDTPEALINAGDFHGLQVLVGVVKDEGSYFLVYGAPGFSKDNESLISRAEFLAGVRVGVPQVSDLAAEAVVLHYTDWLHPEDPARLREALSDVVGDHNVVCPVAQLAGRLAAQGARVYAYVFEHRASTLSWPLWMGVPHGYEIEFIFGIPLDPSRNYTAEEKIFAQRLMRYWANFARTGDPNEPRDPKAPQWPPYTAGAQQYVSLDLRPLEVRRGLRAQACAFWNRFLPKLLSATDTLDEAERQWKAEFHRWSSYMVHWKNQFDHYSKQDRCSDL
Results filed as inconclusive are left out. Active and inactive are the calls of the source. The call rests on the fitted dose curve.
The reply should name one outcome from active, inactive

Use the examples below as a reference point.
Hi, do you know how O=S1(=O)OCCO1 came out in this test?
inactive

And for O=C(NC(O)C(Cl)(Cl)Cl)NC(O)C(Cl)(Cl)Cl (stereo unspecified) ?
inactive

New cases:
Hi, do you know how COC[C@@H](NC(C)=O)C(=O)NCc1ccccc1 came out in this test?
inactive

And for CCN(CCO)CCn1c(Cc2ccccc2)nc2c1c(=O)n(C)c(=O)n2C ?
inactive

And for COc1ccccc1OC ?
inactive

And for O=C(Cl)/C=C/C(=O)Cl ?
inactive

And for C/C=C/CC#N ?
inactive

And for CCOC(=O)C(SP(=S)(OC)OC)c1ccccc1 (stereo unspecified) ?
active

And for CC(C)(N)Cc1ccccc1Cl ?
inactive

And for CC(C)N(Cc1ccccc1)C(=O)C(C)(C)C ?
inactive

And for CS(=O)(=O)Cl ?
inactive

And for Cc1ccc(Cl)c(O)c1 ?
inactive

And for S=C=S ?
inactive

And for CCN[C@@H](C)Cc1cccc(C(F)(F)F)c1 ?
inactive

And for O=C1CC(=O)NC(=O)N1 ?
inactive

And for N[C@@H](Cc1ccc(Oc2cc(I)c(O)c(I)c2)c(I)c1)C(=O)O ?
inactive

And for CC#Cc1cc(C)nc(Nc2ccccc2)n1 ?
inactive

And for CCN(CCO)CCO ?
inactive

---

molecular target: Nuclear receptor subfamily 1 group I member 2 (Rattus norvegicus) (UniProt Q9R1A7); assay: Rat pregnane X receptor (rPXR) activation by small molecules, qHTS assay (AID 1346983); details: rPXR luciferase reporter cells, One-Glo luminescence, 24 h; hits give high values; further: on the % scale 0 is the no-effect control and ±100 the full control effect; nearly all actives have a fitted effect of over 20% in size
Sequence (Q9R1A7 whole entry, looked up): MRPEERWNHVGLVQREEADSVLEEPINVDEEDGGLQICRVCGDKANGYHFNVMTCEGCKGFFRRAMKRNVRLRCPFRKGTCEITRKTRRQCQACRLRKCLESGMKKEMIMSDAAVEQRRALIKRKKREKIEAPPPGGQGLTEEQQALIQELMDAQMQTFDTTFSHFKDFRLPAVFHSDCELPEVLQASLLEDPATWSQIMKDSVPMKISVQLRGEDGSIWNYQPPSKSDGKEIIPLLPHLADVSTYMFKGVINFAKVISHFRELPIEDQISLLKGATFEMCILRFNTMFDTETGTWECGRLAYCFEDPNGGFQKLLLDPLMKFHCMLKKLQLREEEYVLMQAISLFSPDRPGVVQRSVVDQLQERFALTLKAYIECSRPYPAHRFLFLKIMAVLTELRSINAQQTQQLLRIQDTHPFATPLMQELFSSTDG
Results filed as inconclusive are left out. Active and inactive are the calls of the source. The call rests on the fitted dose curve; in most records, active means well fitted activation curve with a large enough effect in the repeat runs; inconclusive means weak or mixed curves; inactive means no such curve, though single readings can be large or run the other way.
Reported max activation values for the following compounds.

Recorded max activation of Cn1c(CCCC(=O)O)nc2cc(N(CCCl)CCCl)ccc21 , please.
-0.144% (inactive)

And for O=C1C2CC=CCC2C(=O)N1SC(Cl)(Cl)Cl (stereo unspecified) ?
-17% (inactive)

And for CC(C)[N+](C)(CCC(C(N)=O)(c1ccccc1)c1ccccc1)C(C)C ?
0.796% (inactive)

New cases:
Recorded max activation of CN(C)C(=O)Oc1cc(OC(=O)N(C)C)cc(C(O)CNC(C)(C)C)c1 (stereo unspecified) , please.
-1.43% (inactive)

And for NC(=O)CS(=O)C(c1ccccc1)c1ccccc1 (stereo unspecified) ?
-0.488% (inactive)

And for CC(C)(C)c1cc(O)ccc1O ?
-1.85% (inactive)

---

experiment: qHTS assay to identify small molecule antagonists of the thyroid receptor (TR) signaling pathway (AID 743065); conditions: GH3.TRE-Luc, T3-stimulated luciferase inhibition, 23.5 h; series mostly up to 70.3 µM; further: on the % scale 0 is the no-effect control and ±100 the full control effect; nearly all actives have a fitted effect of over 55% in size
Inconclusive results are not listed. The source made the active and inactive calls. The call rests on the fitted dose curve; in most records, active means well fitted inhibition curve with a large enough effect in the repeat runs; inconclusive means weak or mixed curves; inactive means no such curve, though single readings can be large or run the other way.
READOUT NAME: outcome

Below are worked cases with known answers.
Recorded outcome of CCOP(=S)(OCC)Oc1ccc(Cl)cc1Cl , please.
inactive

And for CCCCCCCC(=O)Cl ?
inactive

And for CN(C)CCc1c[nH]c2cccc(OP(=O)(O)O)c12 ?
inactive

And for CN(C)CCN(C)C ?
inactive

And for CCN(CC)C1CCCCC1 ?
inactive

And for Cc1ccc2c(c1)C1CN(C)CCC1N2 (stereo not given) ?
inactive

And for CCNc1nc(NCC)nc(SC)n1 ?
inactive

And for CC(C)(C)C(=O)Cl ?
inactive

And for O=[N+]([O-])c1cccc(CCl)c1 ?
inactive

And for CCN[C@@H](C)Cc1ccccc1 ?
inactive

New cases:
Recorded outcome of CC(C)(C)C(=O)C(Cl)Cl , please.
inactive

And for COC(=O)[C@@H](N)CCCN/C(N)=N/[N+](=O)[O-] ?
inactive

And for C/C(=N\NC(=O)Nc1cc(F)cc(F)c1)c1ncccc1C(=O)O ?
inactive

And for Cc1cc(OC(=O)N(C)C)nn1C(=O)N(C)C ?
inactive

And for OP(O)c1ccccc1 ?
inactive

---

biological target: Cytochrome P450 3A4 (Homo sapiens) (UniProt P08684); assay: Cytochrome P450 Family 3 Subfamily A Member 4 (CYP3A4) small molecule antagonists: luciferase reporter qHTS assay (AID 1671201); conditions: P450-Glo CYP3A4 enzyme, luciferin luminescence, 1 h; series mostly up to 115 µM; further: nearly all actives have a fitted effect of over 50% in size
Sequence (P08684 whole entry, looked up): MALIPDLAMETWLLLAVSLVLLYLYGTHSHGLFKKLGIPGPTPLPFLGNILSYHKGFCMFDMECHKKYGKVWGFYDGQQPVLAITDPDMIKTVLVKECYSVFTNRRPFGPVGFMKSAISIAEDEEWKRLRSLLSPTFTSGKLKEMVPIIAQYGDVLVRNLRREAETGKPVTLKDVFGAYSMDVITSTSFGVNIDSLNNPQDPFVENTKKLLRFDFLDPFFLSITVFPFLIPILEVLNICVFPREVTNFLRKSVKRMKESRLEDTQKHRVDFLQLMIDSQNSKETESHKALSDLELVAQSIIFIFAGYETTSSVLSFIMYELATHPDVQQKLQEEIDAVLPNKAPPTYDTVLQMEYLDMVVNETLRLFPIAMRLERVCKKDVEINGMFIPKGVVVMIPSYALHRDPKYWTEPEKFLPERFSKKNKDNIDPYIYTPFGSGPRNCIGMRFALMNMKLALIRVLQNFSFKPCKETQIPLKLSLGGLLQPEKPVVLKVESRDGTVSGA
Results filed as inconclusive are left out. Active and inactive are the calls of the source. The call rests on the fitted dose curve; in most records, active means well fitted inhibition curve with a large enough effect in the repeat runs; inconclusive means weak or mixed curves; inactive means no such curve, though single readings can be large or run the other way.
The reply should name one outcome from active, inactive

Use the examples below as a reference point.
Hi, do you know how CC(C)(N)Cc1ccc(Cl)cc1 came out in this test?
inactive

And for CN(C)C1CCCCC1 ?
inactive

And for CC1NCCOC1c1ccccc1 (centres undefined) ?
inactive

New cases:
Hi, do you know how CC[C@H](N)c1ccccc1 came out in this test?
active

And for NNC(N)=O ?
inactive

And for C[N+]1(C)CCCCC1 ?
inactive

And for Cc1ccc(Cl)c(O)c1 ?
inactive

And for O=C1CCCCC1Cl (centres undefined) ?
inactive

And for O=C(Cl)CCl ?
inactive

---

assay: qHTS assay for small molecule agonists of the antioxidant response element (ARE) signaling pathway (AID 743202); details: HepG2 ARE-bla reporter, beta-lactamase FRET, 16 h; series mostly up to 73.3 µM; further: on the % scale 0 is the no-effect control and ±100 the full control effect
Results filed as inconclusive are left out. Activity calls are given as the source filed them. The call rests on the fitted dose curve; in most records, active means well fitted activation curve with a large enough effect in the signal ratio in the repeat runs (not every such curve was filed as active); inconclusive means weak or mixed curves, or effect the other way; inactive means no such curve, though single readings can be large or run the other way; the % refers to the signal ratio.
The reply should name one outcome from TRUE (active), FALSE (inactive)

Hi, do you know how CCOC(=O)COc1ccc(Cl)cc1Cl came out in this test?
FALSE

New cases:
Hi, do you know how ClC(Cl)(Cl)Cl came out in this test?
FALSE

And for O=C/C=C/c1ccco1 ?
FALSE

And for CON(C)C(=O)Nc1ccc(Br)cc1 ?
FALSE

And for O=C(Cl)C(Cl)(Cl)Cl ?
FALSE

And for COc1ccc(C=O)cc1O ?
FALSE

And for CCC(C)C(C)(COC(N)=O)COC(N)=O (centres undefined) ?
FALSE

And for CCN(CC)C1CCCCC1 ?
FALSE

And for O=C(NC(O)C(Cl)(Cl)Cl)NC(O)C(Cl)(Cl)Cl (centres undefined) ?
FALSE

---

target: Estrogen receptor beta (Homo sapiens) (UniProt Q92731); assay: qHTS assay to identify small molecule agonists of the estrogen receptor beta (ER-beta) signaling pathway (AID 1259377); details: ER-beta-UAS-bla HEK293T, beta-lactamase FRET ratio, 16 h; series mostly up to 92.4 µM; further: on the % scale 0 is the no-effect control and ±100 the full control effect
Sequence (Q92731 whole entry, looked up): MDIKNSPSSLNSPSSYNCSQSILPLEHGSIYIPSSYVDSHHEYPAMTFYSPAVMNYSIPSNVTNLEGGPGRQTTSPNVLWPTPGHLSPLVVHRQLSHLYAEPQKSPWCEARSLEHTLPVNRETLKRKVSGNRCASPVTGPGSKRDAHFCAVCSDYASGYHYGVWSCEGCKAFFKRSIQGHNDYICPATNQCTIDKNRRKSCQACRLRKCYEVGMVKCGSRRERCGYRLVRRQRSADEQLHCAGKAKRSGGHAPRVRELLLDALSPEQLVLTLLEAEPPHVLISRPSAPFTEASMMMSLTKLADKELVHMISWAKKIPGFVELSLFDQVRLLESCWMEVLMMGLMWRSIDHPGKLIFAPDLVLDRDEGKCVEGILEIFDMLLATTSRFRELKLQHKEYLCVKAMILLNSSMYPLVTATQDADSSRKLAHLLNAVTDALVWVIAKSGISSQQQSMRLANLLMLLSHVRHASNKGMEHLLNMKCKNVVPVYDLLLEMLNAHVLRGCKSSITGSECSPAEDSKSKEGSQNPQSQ
Inconclusive results are not listed. Calls of active or inactive are those of the source. The call rests on the fitted dose curve; in most records, active means well fitted activation curve with a large enough effect in the signal ratio in the repeat runs (not every such curve was filed as active); inconclusive means weak or mixed curves, or effect the other way; inactive means flat fitted curve, though single readings scatter; the % refers to the signal ratio.
READOUT NAME: outcome

Below are worked cases with known answers.
Recorded outcome of CCCOC(=O)c1cncn1C(C)c1ccccc1 (configuration not stated) , please.
inactive

And for c1cncc([C@@H]2CCCCN2)c1 ?
inactive

And for BrCC1CO1 (configuration not stated) ?
inactive

And for O=C1CCCCC1Cl (configuration not stated) ?
inactive

New cases:
Recorded outcome of CC[C@H](N)c1ccccc1 , please.
inactive

And for CC[C@@H](CO)NC(=O)[C@@H]1C=C2c3cccc4[nH]cc(c34)C[C@H]2N(C)C1 ?
inactive

And for CN=CNc1ccc(C)cc1C ?
inactive

And for CC[C@@H](CO)NC(=O)[C@@H]1C=C2c3cccc4c3c(cn4C)C[C@H]2N(C)C1 ?
inactive

And for O=C(O)C(Cl)Br (configuration not stated) ?
inactive

And for CCCCCCCCBr ?
inactive

And for CCCN1CCC[C@@H]2Cc3[nH]ncc3C[C@H]21 ?
inactive

And for CCC1(CC)C(=O)C=CNC1=O ?
inactive

And for COc1cccc(C=O)c1 ?
inactive

And for Clc1nc(Cl)nc(Nc2ccccc2Cl)n1 ?
inactive

---

experiment: qHTS assay to identify small molecule antagonists of the androgen receptor (AR) signaling pathway using the MDA cell line - cell viability counter screen (AID 743041; further: on the % scale 0 is the no-effect control and ±100 the full control effect; nearly all actives have a fitted effect of over 45% in size); conditions: MDA-kb2 viability, CellTiter-Fluor, 16 h, cells co-treated with R1881 androgen agonist; series mostly up to 70.3 µM
Results filed as inconclusive are left out. Activity calls are given as the source filed them. Calls come from the whole dose curve; as a rule, active = well fitted cell-killing curve with a large enough effect in the repeat runs; inconclusive = weak or mixed curves, or effect the other way; inactive = flat fitted curve, though single readings scatter.
READOUT NAME: outcome

Below are worked cases with known answers.
Recorded outcome of O=[N+]([O-])CCO , please.
inactive

And for BrCCc1ccccc1 ?
inactive

And for CCOC(=O)N(C)N=O ?
inactive

And for O=c1[nH]oc2c1CCNC2 ?
inactive

And for CCN[C@@H](C)Cc1cccc(C(F)(F)F)c1 ?
inactive

And for CCCN1CCC[C@@H]2Cc3[nH]ncc3C[C@H]21 ?
inactive

New cases:
Recorded outcome of COc1ccccc1OC , please.
inactive

And for O=S1(=O)OCCO1 ?
inactive

And for CCC(=O)OC1(c2ccccc2)CCN(C)CC1 ?
inactive

And for Cc1cc(OC(=O)N(C)C)nn1C(=O)N(C)C ?
inactive

And for N[C@@H]1C[C@H]1c1ccccc1 ?
inactive

And for NC1(c2ccccc2)CCCCC1 ?
inactive
